- targetSystem: T1, murine Jag2-DSL-EGF1-4 (M27-E388) (UniProt Q9QYE5 27-388)
- T1 chain: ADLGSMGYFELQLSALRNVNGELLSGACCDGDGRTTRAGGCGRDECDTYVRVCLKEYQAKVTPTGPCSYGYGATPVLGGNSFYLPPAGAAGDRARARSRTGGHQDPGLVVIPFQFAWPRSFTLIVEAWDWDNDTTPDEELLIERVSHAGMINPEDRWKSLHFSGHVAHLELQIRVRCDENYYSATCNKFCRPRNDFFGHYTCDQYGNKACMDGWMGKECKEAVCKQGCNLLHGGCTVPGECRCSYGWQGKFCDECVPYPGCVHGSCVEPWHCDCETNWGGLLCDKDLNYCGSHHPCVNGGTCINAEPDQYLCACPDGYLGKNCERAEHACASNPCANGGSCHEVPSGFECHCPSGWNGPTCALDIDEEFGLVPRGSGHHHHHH
- protocol: Biacore (SPR)
Measured pKd, listed per entry.
Schema: pKd number; meaning minus log10 of the concentration expressed in molar units.

INSERT INTO assay_data (binder, readoutlabel, measurement) VALUES
  ('D-1 (antibody, V domains shown) VH: EVQLVESGGGLVQPGGSLRLSCAASGFTFTSNYMSWVRQAPGKGLEWVSTIWYQSGTTDYADSVKGRFTISADTSKNTAYLQMNSLRAEDTAVYYCARDSPWPSKGFGMDVWGQGTLVTVSS VL: DIQMTQSPSSLSASVGDRVTITCRASQSISSYLAWYQQKPGKAPKLLIYGASSRASGVPSRFSGSGSGTDFTLTISSLQPEDFATYYCQQYLSSPITFGQGTKVEIK', 'pKd', 7.85);

What value of pKd has been recorded for this entry: B-2 (antibody, V domains shown) VH: EVQLVESGGGLVQPGGSLRLSCAASGFTFTSYDIHWVRQAPGKGLEWVGGISPADGDTDYANSVKGRFTISADTSKNTAYLQMNSLRAEDTAVYYCARNDYDVRSVGSGMDYWGQGTLVTVSS VL: DIQMTQSPSSLSASVGDRVTITCRASQDVSTAVAWYQQKPGKAPKLLIYSASFLYSGVPSRFSGSGSGTDFTLTISSLQPEDFATYYCQQSWTAPPTFGQGTKVEIK
11.60

What value of pKd has been recorded for this entry: B-1 (antibody, V domains shown) VH: EVQLVESGGGLVQPGGSLRLSCAASGFTFTSYDIHWVRQAPGKGLEWVGGISPADGDTDYANSVKGRFTISADTSKNTAYLQMNSLRAEDTAVYYCARNDYDVRTVGSGMDYWGQGTLVTVSS VL: DIQMTQSPSSLSASVGDRVTITCRASQDVSTAVAWYQQKPGKAPKLLIYSASFLYSGVPSRFSGSGSGTDFTLTISSLQPEDFATYYCQQSYTSAPTFGQGTKVEIK
8.96
